# METHOD: Pharmacokinetic parameters (Tmax, AUClast, Cmax) of DD217 in phase II trial patients
# Type: in vivo, human (patients undergoing knee replacement surgery)
# CONDITION INFO: human, plasma, oral, 40 mg/day; ABCB1 rs4148738 C>T, C/C (n 2); read-out: AUClast (SD)
PROPERTY NAME: AUC(0-t) (ng·h/mL)
Answer in ng·h/mL, number only, no unit symbol.

Task: Reported AUC(0-t) for CC(=N)N(C)c1ccc(C(=O)Nc2ccc(C)cc2C(=O)Nc2ccc(Cl)cn2)cc1.Cl : what is it?
Result: 60.9

----------
# METHOD: Pharmacokinetic parameters (Tmax, AUClast, Cmax) of DD217 in phase II trial patients
# Format: in vivo, human (patients undergoing knee replacement surgery)
# CONDITION INFO: human, plasma, oral, 60 mg; CYP2C9 *1/*1, NM (n = 11); mean ± SD; read-out: Tmax
PROPERTY NAME: Tmax
Answer with the figure and its unit, nothing else.

Task: Reported Tmax for CC(=N)N(C)c1ccc(C(=O)Nc2ccc(C)cc2C(=O)Nc2ccc(Cl)cn2)cc1.Cl : what is it?
Result: 12.9 h

----------
# METHOD: Pharmacokinetic parameters (Tmax, AUClast, Cmax) of DD217 in phase II trial patients
# Type: in vivo, human (patients undergoing knee replacement surgery)
# CONDITION INFO: human, plasma, oral, 60 mg; CYP3A *1/*1, EM (n = 16); mean ± SD; read-out: AUClast
PROPERTY NAME: AUC(0-t) (ng·h/mL)
Answer in ng·h/mL, number only, no unit symbol.

Task: Reported AUC(0-t) for CC(=N)N(C)c1ccc(C(=O)Nc2ccc(C)cc2C(=O)Nc2ccc(Cl)cn2)cc1.Cl [DD217] : what is it?
Result: 52.7

----------
# METHOD: Pharmacokinetic parameters (Tmax, AUClast, Cmax) of DD217 in phase II trial patients
# Format: in vivo, human (patients undergoing knee replacement surgery)
# CONDITION INFO: human, plasma, im, 40 mg; CYP3A *1/*22, *1/*3, IM (n = 4); mean ± SD; read-out: Cmax
PROPERTY NAME: Cmax (ng/mL)
Answer in ng/mL, number only, no unit symbol.

Task: Reported Cmax for CC(=N)N(C)c1ccc(C(=O)Nc2ccc(C)cc2C(=O)Nc2ccc(Cl)cn2)cc1.Cl : what is it?
Result: 6.63

----------
# METHOD: Pharmacokinetic parameters (Tmax, AUClast, Cmax) of DD217 in phase II trial patients
# Assay type: in vivo, human (patients undergoing knee replacement surgery)
# CONDITION INFO: human, plasma, oral, 60 mg/day; ABCB1 rs1128503 C/C (n 4); read-out: Tmax (SD)
PROPERTY NAME: Tmax (h)
Answer in h, number only, no unit symbol.

Task: Reported Tmax for CC(=N)N(C)c1ccc(C(=O)Nc2ccc(C)cc2C(=O)Nc2ccc(Cl)cn2)cc1.Cl : what is it?
Result: 2

----------
# METHOD: Pharmacokinetic parameters (Tmax, AUClast, Cmax) of DD217 in phase II trial patients
# Format: in vivo, human (patients undergoing knee replacement surgery)
# CONDITION INFO: human, plasma, oral, 40 mg/day; ABCB1 rs2032582 G>T, G/T (n 6); read-out: Tmax (SD)
PROPERTY NAME: Tmax
Answer with the figure and its unit, nothing else.

Task: Reported Tmax for CC(=N)N(C)c1ccc(C(=O)Nc2ccc(C)cc2C(=O)Nc2ccc(Cl)cn2)cc1.Cl [DD217] : what is it?
Result: 9.5 h

----------
# METHOD: Pharmacokinetic parameters (Tmax, AUClast, Cmax) of DD217 in phase II trial patients
# Format: in vivo, human (patients undergoing knee replacement surgery)
# CONDITION INFO: human, plasma, oral, 40 mg; CYP2C19 *1/*17, *17/*17, RM + UM (n = 9); mean ± SD; read-out: AUClast
PROPERTY NAME: AUC(0-t) (ng·h/mL)
Answer in ng·h/mL, number only, no unit symbol.

Task: Reported AUC(0-t) for CC(=N)N(C)c1ccc(C(=O)Nc2ccc(C)cc2C(=O)Nc2ccc(Cl)cn2)cc1.Cl : what is it?
Result: 47.7

----------
# METHOD: Pharmacokinetic parameters (Tmax, AUClast, Cmax) of DD217 in phase II trial patients
# Assay type: in vivo, human (patients undergoing knee replacement surgery)
# CONDITION INFO: human, plasma, oral, 60 mg/day; ABCB1 rs1128503 T/C (n 10); read-out: Cmax (SD)
PROPERTY NAME: Cmax (ng/mL)
Answer in ng/mL, number only, no unit symbol.

Task: Reported Cmax for CC(=N)N(C)c1ccc(C(=O)Nc2ccc(C)cc2C(=O)Nc2ccc(Cl)cn2)cc1.Cl : what is it?
Result: 4.66

----------
# METHOD: Pharmacokinetic parameters (Tmax, AUClast, Cmax) of DD217 in phase II trial patients
# Format: in vivo, human (patients undergoing knee replacement surgery)
# CONDITION INFO: human, plasma, oral, 40 mg/day; ABCB1 rs4148738 C>T, T/T (n 8); read-out: AUClast (SD)
PROPERTY NAME: AUC(0-t) (ng·h/mL)
Answer in ng·h/mL, number only, no unit symbol.

Task: Reported AUC(0-t) for CC(=N)N(C)c1ccc(C(=O)Nc2ccc(C)cc2C(=O)Nc2ccc(Cl)cn2)cc1.Cl : what is it?
Result: 34.6

----------
# METHOD: Pharmacokinetic parameters (Tmax, AUClast, Cmax) of DD217 in phase II trial patients
# Format: in vivo, human (patients undergoing knee replacement surgery)
# CONDITION INFO: human, plasma, oral, 60 mg/day; ABCB1 rs1128503 T/C (n 10); read-out: Tmax (SD)
PROPERTY NAME: Tmax (h)
Answer in h, number only, no unit symbol.

Task: Reported Tmax for CC(=N)N(C)c1ccc(C(=O)Nc2ccc(C)cc2C(=O)Nc2ccc(Cl)cn2)cc1.Cl [DD217] : what is it?
Result: 9

----------
# METHOD: Pharmacokinetic parameters (Tmax, AUClast, Cmax) of DD217 in phase II trial patients
# Assay type: in vivo, human (patients undergoing knee replacement surgery)
# CONDITION INFO: human, plasma, oral, 60 mg/day; ABCB1 rs1128503 T/C (n 10); read-out: AUClast (SD)
PROPERTY NAME: AUC(0-t) (µg·h/mL)
Answer in µg·h/mL, number only, no unit symbol.

Task: Reported AUC(0-t) for CC(=N)N(C)c1ccc(C(=O)Nc2ccc(C)cc2C(=O)Nc2ccc(Cl)cn2)cc1.Cl [DD217] : what is it?
Result: 0.0505

----------
# METHOD: Pharmacokinetic parameters (Tmax, AUClast, Cmax) of DD217 in phase II trial patients
# Assay type: in vivo, human (patients undergoing knee replacement surgery)
# CONDITION INFO: human, plasma, im, 60 mg; CYP2C19 *1/*2, *2/*2, *2/*17, IM + PM (n = 4); mean ± SD; read-out: Cmax
PROPERTY NAME: Cmax
Answer with the figure and its unit, nothing else.

Task: Reported Cmax for CC(=N)N(C)c1ccc(C(=O)Nc2ccc(C)cc2C(=O)Nc2ccc(Cl)cn2)cc1.Cl : what is it?
Result: 3.64 ng/mL

----------
# METHOD: Pharmacokinetic parameters (Tmax, AUClast, Cmax) of DD217 in phase II trial patients
# Format: in vivo, human (patients undergoing knee replacement surgery)
# CONDITION INFO: human, plasma, oral, 60 mg/day; ABCB1 rs2032582 G/G (n 4); read-out: Tmax (SD)
# Protocol: The design, eligibility criteria, and outcomes of the phase II clinical trial evaluating the safety and tolerability of DD217 (NCT05189002, ClinicalTrials.gov) have been described previously. […] To characterize the pharmacokinetic profile of DD217 in our study, three parameters were assessed: Cmax, Tmax, and AUClast.
PROPERTY NAME: Tmax (h)
Answer in h, number only, no unit symbol.

Task: Reported Tmax for CC(=N)N(C)c1ccc(C(=O)Nc2ccc(C)cc2C(=O)Nc2ccc(Cl)cn2)cc1.Cl : what is it?
Result: 2

----------
# METHOD: Pharmacokinetic parameters (Tmax, AUClast, Cmax) of DD217 in phase II trial patients
# Type: in vivo, human (patients undergoing knee replacement surgery)
# CONDITION INFO: human, plasma, oral, 40 mg; CYP2C8 rs10509681 T/T (n 13); read-out: Tmax (h, SD)
PROPERTY NAME: Tmax (h)
Answer in h, number only, no unit symbol.

Task: Reported Tmax for CC(=N)N(C)c1ccc(C(=O)Nc2ccc(C)cc2C(=O)Nc2ccc(Cl)cn2)cc1.Cl [DD217] : what is it?
Result: 8.92

----------
# METHOD: Pharmacokinetic parameters (Tmax, AUClast, Cmax) of DD217 in phase II trial patients
# Assay type: in vivo, human (patients undergoing knee replacement surgery)
# CONDITION INFO: human, plasma, oral, 60 mg; CYP2C19 *1/*1, NM (n = 8); mean ± SD; read-out: AUClast
PROPERTY NAME: AUC(0-t) (ng·h/mL)
Answer in ng·h/mL, number only, no unit symbol.

Task: Reported AUC(0-t) for CC(=N)N(C)c1ccc(C(=O)Nc2ccc(C)cc2C(=O)Nc2ccc(Cl)cn2)cc1.Cl [DD217] : what is it?
Result: 98
